Molecular target: human BRD4 bromodomain II (Homo sapiens)
Construct: human BRD4 bromodomain II [based on Genbank NM_058243, residues 349-460]; host or cells: E. coli
Assay: Bromodomain binding assay (AlphaScreen), BRD4 BDII
Settings: AlphaScreen assay, Table C2; read-out: BRD4 BDII IC50
Test readout: IC50

Record excerpt, results attached:
Molecule: Cn1ccn(-c2ccc(-c3cc(F)cc(-c4ccnc(N5CC(O)C6(CC6)C5)c4)c3O)cc2Cl)c1=O (centres unmarked)
Measured: 0.01 to 1 nM

Molecule: CC(=O)Nc1ccc(-c2cccc(-c3cncc(N4CCNCC4)c3)c2O)cc1F
Measured: 1 to 10 nM

Molecule: Cc1ncc(-c2cc(F)cc(-c3ccc(-n4ccn(C)c4=O)c(Cl)c3)c2O)cc1N1CC2CCC(C1)N2C(C)C
Measured: 1 to 10 nM

Molecule: CC(=O)Nc1ccc(-c2cccc(-c3cnn(-c4ccccc4)c3)c2O)cc1
Measured: > 100 nM

Molecule: Cn1ccn(-c2ccc(-c3cc(F)cc(-c4cc(-c5cn[nH]c5)cc(N5CCNCC5)c4)c3O)cc2Cl)c1=O
Measured: 1 to 10 nM

Request: May I ask what IC50 has been recorded for Cn1ccn(-c2ccc(-c3cc(F)cc(-c4ccnc(N5CCN(C67CC(C6)C7)CC5)c4)c3O)cc2Cl)c1=O ?
Result: 1 to 10 nM

Request: Fill in: IC50 of Cn1ccn(-c2ccc(-c3cc(F)cc(-c4ccnc(N5CC[C@H](N)C5)c4)c3N)cc2Cl)c1=O is ___
Result: 1 to 10 nM

Request: Please give the measured IC50 for this molecule: CC(=O)Nc1ccc(-c2cccc(-c3cc(N4CCNCC4)no3)c2O)cc1C(C)C [Example 27, 2,2,2-trifluoroacetate]
Result: > 100 nM
